SYSTEM NAME: ACVR1B (human) (UniProt P36896)
Sequence (P36896 whole entry, looked up): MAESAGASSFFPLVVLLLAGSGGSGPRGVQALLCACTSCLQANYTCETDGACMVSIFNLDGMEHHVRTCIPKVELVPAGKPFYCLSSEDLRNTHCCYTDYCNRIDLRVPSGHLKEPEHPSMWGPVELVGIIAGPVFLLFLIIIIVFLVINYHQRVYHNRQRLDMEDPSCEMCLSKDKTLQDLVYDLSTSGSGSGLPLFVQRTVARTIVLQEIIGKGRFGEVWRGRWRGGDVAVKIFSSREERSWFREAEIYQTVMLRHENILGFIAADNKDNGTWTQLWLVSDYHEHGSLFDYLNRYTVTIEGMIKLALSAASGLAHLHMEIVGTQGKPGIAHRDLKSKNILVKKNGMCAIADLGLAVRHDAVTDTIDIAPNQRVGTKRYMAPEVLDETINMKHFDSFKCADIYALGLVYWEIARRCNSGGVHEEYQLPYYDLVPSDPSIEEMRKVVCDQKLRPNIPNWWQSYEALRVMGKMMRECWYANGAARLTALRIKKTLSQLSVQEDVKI
EXPERIMENT: KINOMEscan competition binding
CONDITION PARAMETERS: compound 10.0 µM
Mark fulfilled only when kinase still bound, per cent of control stays strictly below 90%. Values equal to the cut-off are not fulfilled.

# count of solved cases: 3
{"SMILES NOTATION": "Cc1cn(-c2cc(C(=O)Nc3ccc(C)c(NC(=O)c4ccno4)c3)cc(C(F)(F)F)c2)cn1", "QUALITATIVE LABEL": "not fulfilled"}
{"SMILES NOTATION": "CCc1nc(-c2cccc(C)c2)c(-c2ccnc(NC(=O)c3ccccc3)c2)s1", "QUALITATIVE LABEL": "fulfilled"}
{"SMILES NOTATION": "N#Cc1cc(-c2ccnc(Nc3ccc(-n4cnc(-c5cccnc5)n4)cc3)n2)cc(N2CCOCC2)c1", "QUALITATIVE LABEL": "fulfilled"}

Field: below-cutoff. Rule: recorded kinase still bound, per cent of control strictly less than 90%. Subject: "N#C/C(=C1/Nc2ccccc2S1)c1ccnc(NCCc2cccnc2)n1"
fulfilled

---

SYSTEM NAME: LRRK2 (human)
EXPERIMENT: KINOMEscan competition binding
CONDITION PARAMETERS: compound 10.0 µM
Mark fulfilled only when kinase still bound, per cent of control stays strictly below 80%. Values equal to the cut-off are not fulfilled.

Field: below-cutoff. Rule: recorded kinase still bound, per cent of control strictly less than 80%. Subject: "CCCS(=O)(=O)Nc1ccc(F)c(C(=O)c2c[nH]c3ncc(Cl)cc23)c1F"
fulfilled

---

Measured kinase still bound, per cent of control, listed per entry.
SYSTEM NAME: EGFR (human) (UniProt P00533)
Sequence (P00533 whole entry, looked up): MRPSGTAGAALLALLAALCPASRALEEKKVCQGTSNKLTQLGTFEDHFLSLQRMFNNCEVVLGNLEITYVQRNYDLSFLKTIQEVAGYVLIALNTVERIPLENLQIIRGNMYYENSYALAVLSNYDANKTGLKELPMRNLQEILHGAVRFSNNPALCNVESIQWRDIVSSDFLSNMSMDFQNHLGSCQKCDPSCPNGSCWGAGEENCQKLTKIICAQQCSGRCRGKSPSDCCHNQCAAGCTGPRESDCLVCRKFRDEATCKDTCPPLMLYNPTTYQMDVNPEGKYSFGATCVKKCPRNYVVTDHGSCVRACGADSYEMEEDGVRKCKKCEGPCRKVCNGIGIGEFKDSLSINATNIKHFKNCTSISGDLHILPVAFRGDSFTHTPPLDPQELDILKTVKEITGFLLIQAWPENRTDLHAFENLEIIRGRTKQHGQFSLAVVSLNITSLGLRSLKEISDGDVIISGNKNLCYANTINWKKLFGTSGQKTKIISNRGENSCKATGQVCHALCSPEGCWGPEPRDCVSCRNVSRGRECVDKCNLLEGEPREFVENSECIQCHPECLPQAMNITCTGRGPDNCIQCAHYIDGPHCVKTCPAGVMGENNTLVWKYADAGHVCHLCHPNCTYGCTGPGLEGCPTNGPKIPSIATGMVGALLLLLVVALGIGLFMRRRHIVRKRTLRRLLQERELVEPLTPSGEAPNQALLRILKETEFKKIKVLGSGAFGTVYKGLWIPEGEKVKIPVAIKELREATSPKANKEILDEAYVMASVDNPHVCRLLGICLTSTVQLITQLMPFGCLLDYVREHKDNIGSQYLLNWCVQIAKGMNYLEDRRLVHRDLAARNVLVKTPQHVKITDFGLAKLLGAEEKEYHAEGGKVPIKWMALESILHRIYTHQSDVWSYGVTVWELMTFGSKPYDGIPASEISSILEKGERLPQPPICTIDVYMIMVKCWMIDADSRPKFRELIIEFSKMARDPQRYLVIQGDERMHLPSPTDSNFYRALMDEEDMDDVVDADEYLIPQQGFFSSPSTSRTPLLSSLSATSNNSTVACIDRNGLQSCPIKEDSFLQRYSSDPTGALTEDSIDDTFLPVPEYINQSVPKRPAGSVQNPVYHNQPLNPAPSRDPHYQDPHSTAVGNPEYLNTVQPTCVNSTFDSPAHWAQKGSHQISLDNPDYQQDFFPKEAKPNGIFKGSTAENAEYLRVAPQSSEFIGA
EXPERIMENT: KINOMEscan competition binding
CONDITION PARAMETERS: compound 10.0 µM
Reply with just the number (in %).

{"MOLECULE": "CC1=C(C(=O)Nc2cc3cn[nH]c3cc2F)C(c2ccc(C(F)(F)F)cc2)CC(=O)N1 (stereo not drawn)", "REPORTED": 40}
{"MOLECULE": "COc1cc(N2CCC(C(N)=O)CC2)ccc1Nc1nc(N)c(Cl)c(Nc2ccccc2S(=O)(=O)C(C)C)n1", "REPORTED": 0.55}
{"MOLECULE": "CNC(=O)Nc1ccc(-c2nc(N3CC4CCC(C3)O4)c3cnn(C4CCC5(CC4)OCCO5)c3n2)cc1", "REPORTED": 62}
{"MOLECULE": "N#Cc1cc(-c2ccnc(Nc3ccc(-n4cnc(-c5cccnc5)n4)cc3)n2)cc(N2CCOCC2)c1", "REPORTED": 71}
{"MOLECULE": "COc1cc2c(Nc3ccc(NC(=O)c4ccccc4)cc3)ncnc2cc1OCCCN1CCOCC1", "REPORTED": 0.65}

Quick one: kinase still bound, per cent of control of "COc1ccc(N(C(=O)Oc2cc(C(=O)Nc3cccc(C(F)(F)F)c3)ccc2C)c2ccnc(Nc3ccc(N4CCN(C)CC4)cc3)n2)c(OC)c1" ?
3.4

Quick one: kinase still bound, per cent of control of "Cc1cn(-c2cc(C(=O)Nc3ccc(C)c(NC(=O)c4ccno4)c3)cc(C(F)(F)F)c2)cn1" ?
100

Quick one: kinase still bound, per cent of control of "C=CC(=O)Nc1ccc(C(=O)c2sc(Nc3ccc(N4CCN(C)CC4)cc3OC)nc2N)cc1" ?
84

---

Measured kinase still bound, per cent of control, listed per entry.
SYSTEM NAME: HUNK (human) (UniProt P57058)
Sequence (P57058 whole entry, looked up): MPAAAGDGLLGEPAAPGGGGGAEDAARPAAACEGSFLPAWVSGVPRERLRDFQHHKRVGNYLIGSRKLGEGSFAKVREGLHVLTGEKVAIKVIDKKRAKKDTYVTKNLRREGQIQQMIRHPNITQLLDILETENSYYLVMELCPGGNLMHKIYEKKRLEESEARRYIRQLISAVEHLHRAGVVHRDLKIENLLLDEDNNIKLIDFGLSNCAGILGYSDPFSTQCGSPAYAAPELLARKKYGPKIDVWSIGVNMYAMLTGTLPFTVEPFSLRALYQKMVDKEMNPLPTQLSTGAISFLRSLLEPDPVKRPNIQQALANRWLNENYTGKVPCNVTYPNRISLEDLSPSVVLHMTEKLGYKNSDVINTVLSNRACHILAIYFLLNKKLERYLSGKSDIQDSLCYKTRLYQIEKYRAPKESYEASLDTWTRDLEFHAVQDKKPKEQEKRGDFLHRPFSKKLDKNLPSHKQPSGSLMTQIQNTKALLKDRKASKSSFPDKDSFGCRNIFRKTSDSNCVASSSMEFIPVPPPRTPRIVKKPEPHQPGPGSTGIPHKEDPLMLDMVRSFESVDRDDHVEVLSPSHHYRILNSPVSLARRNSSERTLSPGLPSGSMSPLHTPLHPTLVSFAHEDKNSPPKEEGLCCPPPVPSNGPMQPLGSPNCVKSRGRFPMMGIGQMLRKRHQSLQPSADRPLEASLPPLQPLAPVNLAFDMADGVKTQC
EXPERIMENT: KINOMEscan competition binding
CONDITION PARAMETERS: compound 10.0 µM
Reply with just the number (in %).

Below are worked cases with known answers.
{"COMPOUND": "N#Cc1cc(-c2ccnc(Nc3ccc(-n4cnc(-c5cccnc5)n4)cc3)n2)cc(N2CCOCC2)c1", "kinase still bound, per cent of control (%)": 42}
{"COMPOUND": "Cc1cn(-c2cc(C(=O)Nc3ccc(C)c(NC(=O)c4ccno4)c3)cc(C(F)(F)F)c2)cn1", "kinase still bound, per cent of control (%)": 100}
{"COMPOUND": "CCN1CCN(Cc2ccc(NC(=O)c3ccc(C)c(/C=C/c4cnc5[nH]ccc5c4OC)c3)cc2C(F)(F)F)CC1", "kinase still bound, per cent of control (%)": 18}
{"COMPOUND": "CNC(=O)Nc1ccc(-c2nc(N3CC4CCC(C3)O4)c3cnn(C4CCC5(CC4)OCCO5)c3n2)cc1", "kinase still bound, per cent of control (%)": 100}

Quick one: kinase still bound, per cent of control of "COc1cc2c(Nc3ccc(NC(=O)c4ccccc4)cc3)ncnc2cc1OCCCN1CCOCC1" ?
81

Quick one: kinase still bound, per cent of control of "CCCS(=O)(=O)Nc1ccc(F)c(C(=O)c2c[nH]c3ncc(Cl)cc23)c1F" ?
24

---

SYSTEM NAME: STK24 (human) (UniProt Q9Y6E0)
Sequence (Q9Y6E0 whole entry, looked up): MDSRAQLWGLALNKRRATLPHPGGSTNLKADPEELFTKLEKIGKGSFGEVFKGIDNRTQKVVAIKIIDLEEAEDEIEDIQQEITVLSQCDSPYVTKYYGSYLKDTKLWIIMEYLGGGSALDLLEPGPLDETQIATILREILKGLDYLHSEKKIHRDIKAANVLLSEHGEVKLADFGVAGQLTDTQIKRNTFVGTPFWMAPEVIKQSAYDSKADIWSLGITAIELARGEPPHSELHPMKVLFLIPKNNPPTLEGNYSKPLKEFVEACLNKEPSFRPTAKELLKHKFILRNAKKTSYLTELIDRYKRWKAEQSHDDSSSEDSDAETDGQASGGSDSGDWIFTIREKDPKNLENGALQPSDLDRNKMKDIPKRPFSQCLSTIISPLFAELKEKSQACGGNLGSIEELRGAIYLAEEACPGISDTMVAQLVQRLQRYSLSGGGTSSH
EXPERIMENT: KINOMEscan competition binding
CONDITION PARAMETERS: compound 10.0 µM
EXPERIMENTAL READOUT: kinase still bound, per cent of control (%)
Reply with just the number (in %).

Below are worked cases with known answers.
{"MOLECULE": "CCN1CCN(Cc2ccc(NC(=O)c3ccc(C)c(/C=C/c4cnc5[nH]ccc5c4OC)c3)cc2C(F)(F)F)CC1", "SYSTEM NAME": "STK24 (human) (UniProt Q9Y6E0)", "kinase still bound, per cent of control [%]": 20}
{"MOLECULE": "CC1=C(C(=O)Nc2cc3cn[nH]c3cc2F)C(c2ccc(C(F)(F)F)cc2)CC(=O)N1 (centres undefined)", "SYSTEM NAME": "STK24 (human) (UniProt Q9Y6E0)", "kinase still bound, per cent of control [%]": 52}
{"MOLECULE": "CC(=O)c1c(C)c2cnc(Nc3ccc(N4CCNCC4)cn3)nc2n(C2CCCC2)c1=O", "SYSTEM NAME": "STK24 (human) (UniProt Q9Y6E0)", "kinase still bound, per cent of control [%]": 16}
{"MOLECULE": "CCOc1cc(N2CCC(O)CC2)ccc1Nc1ncc2c(n1)N(C)c1ccccc1C(=O)N2C", "SYSTEM NAME": "STK24 (human) (UniProt Q9Y6E0)", "kinase still bound, per cent of control [%]": 100}
{"MOLECULE": "CCCS(=O)(=O)Nc1ccc(F)c(C(=O)c2c[nH]c3ncc(Cl)cc23)c1F", "SYSTEM NAME": "STK24 (human) (UniProt Q9Y6E0)", "kinase still bound, per cent of control [%]": 77}

Quick one: kinase still bound, per cent of control of "Cc1cn(-c2cc(C(=O)Nc3ccc(C)c(NC(=O)c4ccno4)c3)cc(C(F)(F)F)c2)cn1" ?
100

Quick one: kinase still bound, per cent of control of "COc1ccc(N(C(=O)Oc2cc(C(=O)Nc3cccc(C(F)(F)F)c3)ccc2C)c2ccnc(Nc3ccc(N4CCN(C)CC4)cc3)n2)c(OC)c1" ?
100

Quick one: kinase still bound, per cent of control of "COc1cc2ncnc(Nc3cccc(Cl)c3)c2cc1OC" ?
87

Quick one: kinase still bound, per cent of control of "CCN(CCO)CCCOc1ccc2c(Nc3cc(CC(=O)Nc4cccc(F)c4)[nH]n3)ncnc2c1" ?
43

---

SYSTEM NAME: FLT3 (human)
EXPERIMENT: KINOMEscan competition binding
CONDITION PARAMETERS: compound 10.0 µM
Measured kinase still bound, per cent of control, listed per entry.
Reply with just the number (in %).

{"COMPOUND": "N#C/C(=C1/Nc2ccccc2S1)c1ccnc(NCCc2cccnc2)n1", "DISPLAY UNIT": "%", "kinase still bound, per cent of control": 100}
{"COMPOUND": "CCc1nc(-c2cccc(C)c2)c(-c2ccnc(NC(=O)c3ccccc3)c2)s1", "DISPLAY UNIT": "%", "kinase still bound, per cent of control": 17}
{"COMPOUND": "C=CC(=O)Nc1ccc(C(=O)c2sc(Nc3ccc(N4CCN(C)CC4)cc3OC)nc2N)cc1", "DISPLAY UNIT": "%", "kinase still bound, per cent of control": 73}
{"COMPOUND": "CCN1CCN(Cc2ccc(NC(=O)c3ccc(C)c(/C=C/c4cnc5[nH]ccc5c4OC)c3)cc2C(F)(F)F)CC1", "DISPLAY UNIT": "%", "kinase still bound, per cent of control": 0.95}
{"COMPOUND": "CCN(CCO)CCCOc1ccc2c(Nc3cc(CC(=O)Nc4cccc(F)c4)[nH]n3)ncnc2c1", "DISPLAY UNIT": "%", "kinase still bound, per cent of control": 0.4}

Quick one: kinase still bound, per cent of control of "COc1cc(N2CCC(C(N)=O)CC2)ccc1Nc1nc(N)c(Cl)c(Nc2ccccc2S(=O)(=O)C(C)C)n1" ?
100

Quick one: kinase still bound, per cent of control of "CC(=O)c1c(C)c2cnc(Nc3ccc(N4CCNCC4)cn3)nc2n(C2CCCC2)c1=O" ?
35

Quick one: kinase still bound, per cent of control of CC1=C(C(=O)Nc2cc3cn[nH]c3cc2F)C(c2ccc(C(F)(F)F)cc2)CC(=O)N1 (centres undefined) ?
100

Quick one: kinase still bound, per cent of control of "COc1cc2c(Nc3ccc(NC(=O)c4ccccc4)cc3)ncnc2cc1OCCCN1CCOCC1" ?
8.8
